- experimentSummary: NCI Yeast Anticancer Drug Screen. Data for the mec2-1 strain (AID 157)
- cond: S. cerevisiae mec2-1 strain, at 50.0 µM
The panel holds about 79,000 compounds, 15% with a hit somewhere; the sample as a whole holds those more often. Calls of active or inactive are those of the source. Cut-off read from the data, not from the text of the source: active = growth inhibition above about 70%; inactive = the rest.
Possible outcomes: Y = active, N = inactive

{"columns": ["molecule", "cat"],
 "data": [
  ["CC(C)N(C#N)C(C)C", "N"],
  ["COc1cccc(C2CC23C(=O)NC(=O)NC3=O)c1 (stereo not given)", "N"],
  ["CCCCOCN(COCCCC)C(C)Cc1ccccc1 (stereo not given)", "N"],
  ["CCCC(C)(COC(N)=O)COC(=O)NC1CC1 (stereo not given)", "N"],
  ["C=CCc1c[nH]c(=S)[nH]c1=O.[Hg]", "Y"],
  ["CCN1C(=O)C(=C/C=C/c2ccc([N+](=O)[O-])cc2)C(=O)N(CC)C1=S", "N"],
  ["O=[N+]([O-])c1ccc(SCl)c([N+](=O)[O-])c1", "N"],
  ["CN(C)CCCCCCN(C)C", "N"],
  ["CO/N=C1\\CC(C)N2C(=O)C(C(C)C)NC(=O)C(NC(=O)c3c4nc5c(C(=O)NC6C(=O)NC(C(C)C)C(=O)N7C(C)CC(O)C7C(=O)N(C)CC(=O)N(C)C(C(C)C)C(=O)OC6C)ccc(C)c5oc-4c(C)c(=O)c3N)C(CO)OC(=O)C(C)N(C)C(=O)CN(C)C(=O)C12 (stereo not given)", "N"],
  ["CCC(Br)C(=O)O (stereo not given)", "N"]
]}

---

- experimentSummary: NCI Yeast Anticancer Drug Screen. Data for the sgs1 mgt1 strain (AID 161);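 note: 0% = growth of cultures given vehicle only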
- cond: S. cerevisiae sgs1 mgt1 strain, at 50.0 µM, hits give high values
The panel holds about 79,000 compounds, 15% with a hit somewhere; the sample as a whole holds those more often.
Overview of recorded growth inhibition for various compounds
propertyName: growth inhibition (%)

{"columns": ["compound", "endpointUnit", "obsValue"],
 "data": [
  ["CC1=CC(=O)C=CC1=O", "%", 28.9],
  ["O=[N+]([O-])c1cc(Cl)ccc1S(=O)(=O)F", "%", 99.5],
  ["Clc1nc(Cl)nc(Nc2ccccc2Cl)n1", "%", 98.9],
  ["CCOP(=O)(OCC)/C(=C/c1cccs1)CC(C)=O", "%", -27.9],
  ["N#CC(C#N)=Cc1ccc(Cl)o1", "%", 61.8],
  ["O=c1[nH]cc(CCl)c(=O)[nH]1", "%", 6.3],
  ["CC(=O)NC(Cc1ccc(N(CCCl)CCCl)cc1)C(=O)NC(CC(C)C)C(=O)O (configuration not stated)", "%", -4.15],
  ["O.O.[NH-]C1CCCCC1[NH-].[Pt+2] (configuration not stated)", "%", 6.25],
  ["ClC1=C(Cl)C2(Cl)C(Cl)CC1(Cl)C2(Cl)Cl (configuration not stated)", "%", 68.5],
  ["[CH3][Sn]([CH3])([Br])[Br].c1ccc(-c2nnc(-c3ccccn3)nc2-c2ccccc2)cc1", "%", 16.4],
  ["NC(Cc1ccc(N(CCCl)Cc2ccccc2)cc1)C(=O)O (configuration not stated)", "%", 2],
  ["COc1cc2c(cc1OC)C1CC(OC(=O)c3ccccc3)(c3nccc4cc(OC)c(OC)cc34)CCN1CC2 (configuration not stated)", "%", 20.6]
]}
